Sourced from the DeepSol protein solubility set

- Protocol details: soluble on expression in E. coli; label from the status in PepcDB or PDB records
Recorded endpoint: soluble on expression in E. coli

Examples with answers:
sequence_content=MAHHHHHHMEAVFYAFASFGTAPTKEMDNAHFSKMLKEAKIIGKTFTSTDADLLFNKIKAKGARKITFTEFNTRALPDIATKLKMTPEQVAEILTKASPASNSTKAEAVKFHDDKNLYTGVYKAGGPTNVDRNAGSLSGVVDRRVDQVDVRGTTSSQK recorded_result=soluble
sequence_content=IFPFKEPPMALEKHGTCLCGDTRLTVTVDNTHISACHCSMCRKWTGGPLLVVHCSKPPLIEGRAPSVYDSSDWAQRAFCGRCGTHLYYRLKANDFHAVPVGLLDGDQAWDFDLQIFVEEKPAWYCFANQTKELSGQE recorded_result="not soluble"
sequence_content=MAENRYELNKNLAQMLKGGVIMDVQNPEQARIAEAAGAAAVMALERIPADIRAVGGVSRMSDPKMIKEIQGAVSIPVMAKVRIGHFVEAQILEAIEIDYIDESEVLSPADNRFHVDKKEFQVPFVCGAKDLGEALRRIAEGASMIRTKGEPGTGDIVQAVRHMRMMSQEIRRIQNLREDELYVAAKDLQVPVELVQYVHKHGKLPVVNFAAGGIATPADAALMMQLGAEGVFVGSGIFKSGDPIKRASAIVKAVTNYRNPQILAQISEDLGEAMVGINENEIQILMAERGKLEHHHHHH recorded_result="not soluble"
sequence_content=MDHQFGYGVEVTGLSPSVTHNDLIDFFSFSGTIQDIDIVRSGEQACTAYVMFKDSYSQETAVLLTGATILDQRVCITRWGQHHEEFDFWNATSRGFEDESDSQHYAQRSEFNAGEAVTKAQEVVKIMLATGFVLGKDALSKAKAFDESHGVSAAAVARVSQLEQRIGLTDKIFTGLEAVRMTDQRYHVSDTAKSAVFATGRTAAAAATSVVNSSYFSSGALWLSGALERAAKAASDLGTRGSRQ recorded_result=soluble

If you can, please state the reported soluble on expression in E. coli value of MSLREYIKEGIKLAVTNIPEDVVSAIREALEREESKIAKYNLEMILKAIDISRKEGIPVCQDTGTPIFFVRTNGPINKIYDEIVKGVEIATREVPLRPNALHVLDGKVIGNVPEVHFEPGKETLISILMKGGGSENCTALFPLTPAEGLEGVKNKVIEHVQSCGGKPCPPIIVGIGIASPAEKAIILAKKALLRRISERHPNEKLAKFERELLEEINSLGIGPMGLGGRTTALDVKVEVETRHPASYIVGVVIQCWAHRRAFIKVSEGGVKIWQEGGSHHHHHH .
soluble

Same lookup for MSLKPNYLEERICLNVLANSVENAQACYEAAEGHVVLGVLSKNYETDEAAIDDMKKYQAATNNALSVGLGAGDPNQSQMVARLSEVLQPQHVNQVFTGVGASRALLRQDETVINGLVSPTGKVGYVNIATGPLSSGAPAAEVPIETAIKLLKDMGGSSIKYFPMKGLAHKEEYQAVAAACAKYDFYLEPTGGIDLENFEEIVQIAVDAGVKKIIPHVYSSIIDQETGDTRTEDVKTLLTMMKKTLNK , please.
not soluble

Same lookup for ESSFTYTLDEKVAELVEFLLLKYEAEEPVTEAEMLMIVIKYKDYFPVILKRAREFMELLFGLALIEVGPDHFCVFANTVGLTDEGSDDEGMPENSLLIIILSVIFIKGNCASEEVIWEVLNAVGVYAGREHFVYGEPRELLTKVWVQGHYLEYREVPHSSPPYYEFLWGPRAHSESIKKKVLEFLAKLNNTVPSSFPSWYKDALKDVEERVQATIDTADD , please.
soluble

Same lookup for MGSDKIHHHHHHMRLNLRQIEVFRAIMLTGSISGAAKLLHVSQPAVSRLISYAEQRLGLALFERIKGRLYPTPEAQRLFVEVNAVYQGVQRVNEIAEDLIENRMGHLRIACSPNLGQSLLPRAIAAFYERLPDVRIILHTMIPNVLLQAVLTQQVELGIAFLQDTHPNVESQLLYENRMVAAVPASHPFARRKTLAVRDLANQPLIGYGSDIPLGQLVRRLFSDESLVPQVKVEVQQAHVACALAQAGTGIALIDELTVAGPVWPQIVVKPIVPTLAAPVSVLHPVPTPLSRLAHAFIDTLHSLAAHA , please.
not soluble

Same lookup for MSLKLDSKGPVLFKQKRVGINKTHFHILKFRTMRIDTPKDTPTHLLKNPDQYITKMGKFLRKTSLDELPQIWNIFVGHMSIIGPRPALWNQYDLIVERDKYGANDVPPGLTGWAQINGRDELPIEVKAKLDGEYVQNIGFWMDVKCFVGTIWSVLRSDGVVEGGTGSAKKEIASTKRREGHHHHHH , please.
soluble
